These data points were gathered from patent US11524961B2.

For each entry below, report its IC50 value.
subject_of_test: JAK2 (Homo sapiens (Human), UniProt O60674)
Sequence (O60674 whole entry): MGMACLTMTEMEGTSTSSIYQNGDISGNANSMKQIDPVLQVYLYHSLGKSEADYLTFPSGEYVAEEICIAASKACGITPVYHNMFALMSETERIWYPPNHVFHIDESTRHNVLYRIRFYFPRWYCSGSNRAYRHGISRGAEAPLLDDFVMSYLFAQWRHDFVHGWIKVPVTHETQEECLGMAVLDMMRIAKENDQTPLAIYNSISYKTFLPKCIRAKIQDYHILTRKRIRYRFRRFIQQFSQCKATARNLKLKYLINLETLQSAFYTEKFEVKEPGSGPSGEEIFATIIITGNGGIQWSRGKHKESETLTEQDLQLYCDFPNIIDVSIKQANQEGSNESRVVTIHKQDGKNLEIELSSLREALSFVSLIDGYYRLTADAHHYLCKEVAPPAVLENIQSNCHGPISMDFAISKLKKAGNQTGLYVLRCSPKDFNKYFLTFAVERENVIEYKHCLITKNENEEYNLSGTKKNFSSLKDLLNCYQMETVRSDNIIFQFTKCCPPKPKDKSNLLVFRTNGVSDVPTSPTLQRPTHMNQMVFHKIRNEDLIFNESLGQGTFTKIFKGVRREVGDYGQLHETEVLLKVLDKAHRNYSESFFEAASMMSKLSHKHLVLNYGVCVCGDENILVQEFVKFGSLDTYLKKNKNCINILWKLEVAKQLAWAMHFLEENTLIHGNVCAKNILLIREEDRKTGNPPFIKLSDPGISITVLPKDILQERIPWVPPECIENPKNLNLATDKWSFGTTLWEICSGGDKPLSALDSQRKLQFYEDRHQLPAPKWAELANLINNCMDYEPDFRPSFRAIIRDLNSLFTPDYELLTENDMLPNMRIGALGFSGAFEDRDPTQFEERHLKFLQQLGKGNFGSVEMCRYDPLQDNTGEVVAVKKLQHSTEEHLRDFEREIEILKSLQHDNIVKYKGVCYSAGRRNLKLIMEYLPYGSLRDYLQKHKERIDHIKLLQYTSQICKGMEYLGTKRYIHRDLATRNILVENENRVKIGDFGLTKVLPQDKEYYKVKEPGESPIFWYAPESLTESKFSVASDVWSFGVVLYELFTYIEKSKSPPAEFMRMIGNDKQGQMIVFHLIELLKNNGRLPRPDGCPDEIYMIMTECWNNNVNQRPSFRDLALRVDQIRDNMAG
protocol: JAK2 enzyme activity inhibition (LANCE Ultra kinase assay)

Query: Looking for the measured IC50 of N#CCC1(n2cc(-c3ncnc4[nH]ccc34)cn2)CN(S(=O)(=NC2CC2)C2CC2)C1 (centres unmarked) [LW104-N] , can you help?
Result: 0.1 to 10 nM

Query: Looking for the measured IC50 of CCS(=N)(=O)N1CC(CC#N)(n2cc(-c3ncnc4[nH]ccc34)cn2)C1 (centres unmarked) [LW104-B] , can you help?
Result: 0.1 to 10 nM

Query: Looking for the measured IC50 of CC(N=[S@@](C)(=O)N1CC(CC#N)(n2cc(-c3ncnc4[nH]ccc34)cn2)C1)c1ccccc1 (stereo in doubt) [LW104-G] , can you help?
Result: 10 to 100 nM

Query: Looking for the measured IC50 of CS(=N)(=O)N1CC(CC#N)(n2cc(-c3ncnc4[nH]ccc34)cn2)C1 (centres unmarked) [LW104-A] , can you help?
Result: 0.1 to 10 nM

Query: Looking for the measured IC50 of CN=S(=O)(C1CC1)N1CC(CC#N)(n2cc(-c3ncnc4[nH]ccc34)cn2)C1 (centres unmarked) [LW104-L] , can you help?
Result: 0.1 to 10 nM

Query: Looking for the measured IC50 of CCS(=N)(=O)N1CC(CC#N)(n2cc(-c3ncnc4[nH]ccc34)cn2)C1 (single isomer, unassigned) [LW104-J] , can you help?
Result: 0.1 to 10 nM

Query: Looking for the measured IC50 of CC(C)N=S(C)(=O)N1CC(CC#N)(n2cc(-c3ncnc4[nH]ccc34)cn2)C1 (centres unmarked) [LW104-I] , can you help?
Result: 10 to 100 nM

Query: Looking for the measured IC50 of N#CCC1(n2cc(-c3ncnc4[nH]ccc34)cn2)CN(S(=N)(=O)c2ccccc2)C1 (centres unmarked) [LW104-C] , can you help?
Result: 10 to 100 nM

* * *

For each entry below, report its IC50 value.
Respond numerically; units are nM and should not be typed.

Query: Give IC50 (JAK3 (Homo sapiens (Human))) of the following compound: CCS(=N)(=O)N1CC(CC#N)(n2cc(-c3ncnc4[nH]ccc34)cn2)C1 (single isomer, unassigned) [LW104-K]
Result: 69.3

Query: Give IC50 (JAK3 (Homo sapiens (Human))) of the following compound: CC(C)N=S(C)(=O)N1CC(CC#N)(n2cc(-c3ncnc4[nH]ccc34)cn2)C1 (stereo not drawn)
Result: 649

Query: Give IC50 (JAK3 (Homo sapiens (Human))) of the following compound: CCS(=N)(=O)N1CC(CC#N)(n2cc(-c3ncnc4[nH]ccc34)cn2)C1 (single isomer, unassigned) [LW104-J]
Result: 116

Query: Give IC50 (JAK3 (Homo sapiens (Human))) of the following compound: CCN=S(=O)(C1CC1)N1CC(CC#N)(n2cc(-c3ncnc4[nH]ccc34)cn2)C1 (stereo not drawn)
Result: 194

Query: Give IC50 (JAK3 (Homo sapiens (Human))) of the following compound: CCS(=N)(=O)N1CC(CC#N)(n2cc(-c3ncnc4[nH]ccc34)cn2)C1 (stereo not drawn) [LW104-B]
Result: 136

Query: Give IC50 (JAK3 (Homo sapiens (Human))) of the following compound: CCS(=O)(=NC)N1CC(CC#N)(n2cc(-c3ncnc4[nH]ccc34)cn2)C1 (stereo not drawn)
Result: 216

Query: Give IC50 (JAK3 (Homo sapiens (Human))) of the following compound: CCS(=O)(=NC1CC1)N1CC(CC#N)(n2cc(-c3ncnc4[nH]ccc34)cn2)C1 (stereo not drawn)
Result: 294

Query: Give IC50 (JAK3 (Homo sapiens (Human))) of the following compound: CN=S(C)(=O)N1CC(CC#N)(n2cc(-c3ncnc4[nH]ccc34)cn2)C1 (stereo not drawn)
Result: 145

Query: Give IC50 (JAK3 (Homo sapiens (Human))) of the following compound: CS(=N)(=O)N1CC(CC#N)(n2cc(-c3ncnc4[nH]ccc34)cn2)C1 (stereo not drawn)
Result: 98.3
